Assay Info: Terminal half-life in Wistar rat at 50 mg/kg, po administered as single dose by UPLC-MS/MS method
Assay type: ADME, organism-based
Measurement Conditions: in vivo, read-out: beta t1/2 (converted)
Measured Parameter: half-life (h)

Answered cases to consult:
Looking up C[N+](C)(C)CC(CC(=O)[O-])OC(=O)CCCCCCCCC(=O)Nc1ccn([C@@H]2O[C@H](CO)[C@@H](O)C2(F)F)c(=O)n1 (stereo partly specified) , I see its half-life listed as 5.4

half-life in this record for CCCC(=O)Nc1ccn([C@@H]2O[C@H](CO)[C@@H](O)C2(F)F)c(=O)n1 : 4.3

The recorded half-life for Nc1ccn([C@@H]2O[C@H](CO)[C@@H](O)C2(F)F)c(=O)n1 is 2.3

A. C[N+](C)(C)CC(CC(=O)[O-])OC(=O)CCCCCCC(=O)Nc1ccn([C@@H]2O[C@H](CO)[C@@H](O)C2(F)F)c(=O)n1 (stereo partly specified)
B. C[N+](C)(C)CC(CC(=O)[O-])OC(=O)CCCCC(=O)Nc1ccn([C@@H]2O[C@H](CO)[C@@H](O)C2(F)F)c(=O)n1 (stereo partly specified)
Which is greater in half-life, the first item A or the second item B ? Answer by stating the label of the chosen item.
B

Origin of measurements: ChEMBL document CHEMBL4049387
